Listing of entries alongside the reported pKi.
assay_system: 72 kDa type IV collagenase (Homo sapiens, UniProt P08253)
Sequence (P08253 whole entry): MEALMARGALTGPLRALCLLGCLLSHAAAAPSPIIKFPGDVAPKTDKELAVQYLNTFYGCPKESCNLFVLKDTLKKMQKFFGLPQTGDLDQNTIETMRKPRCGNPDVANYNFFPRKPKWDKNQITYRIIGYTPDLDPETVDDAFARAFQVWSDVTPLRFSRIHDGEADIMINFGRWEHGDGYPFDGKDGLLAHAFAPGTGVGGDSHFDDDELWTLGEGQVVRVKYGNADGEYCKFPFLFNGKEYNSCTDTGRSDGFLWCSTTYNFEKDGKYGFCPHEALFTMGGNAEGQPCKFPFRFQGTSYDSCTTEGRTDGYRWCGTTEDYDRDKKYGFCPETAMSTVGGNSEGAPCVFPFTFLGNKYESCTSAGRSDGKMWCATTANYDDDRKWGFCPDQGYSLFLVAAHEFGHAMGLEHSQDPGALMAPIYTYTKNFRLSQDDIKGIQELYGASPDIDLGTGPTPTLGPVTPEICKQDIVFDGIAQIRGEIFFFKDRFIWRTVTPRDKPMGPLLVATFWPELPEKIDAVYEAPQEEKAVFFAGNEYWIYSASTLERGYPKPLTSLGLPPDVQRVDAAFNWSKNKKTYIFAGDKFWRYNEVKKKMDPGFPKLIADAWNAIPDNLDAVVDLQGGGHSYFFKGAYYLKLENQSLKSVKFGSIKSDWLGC
test_details: Inhibition of matrix metalloprotease-2
pKi: −log10 of the molar value.
experimental_readout: pKi

1. O=C(C[C@@H](Cc1cccc(O)c1)C(=O)N[C@H]1c2ccccc2C[C@H]1O)NO : 5.82
2. O=C(C[C@@H](Cc1ccc(O)cc1)C(=O)N[C@@H]1CCc2ccccc21)NO : 4.50

====

assay_system: Neutrophil collagenase (Homo sapiens)
Sequence (P22894 whole entry): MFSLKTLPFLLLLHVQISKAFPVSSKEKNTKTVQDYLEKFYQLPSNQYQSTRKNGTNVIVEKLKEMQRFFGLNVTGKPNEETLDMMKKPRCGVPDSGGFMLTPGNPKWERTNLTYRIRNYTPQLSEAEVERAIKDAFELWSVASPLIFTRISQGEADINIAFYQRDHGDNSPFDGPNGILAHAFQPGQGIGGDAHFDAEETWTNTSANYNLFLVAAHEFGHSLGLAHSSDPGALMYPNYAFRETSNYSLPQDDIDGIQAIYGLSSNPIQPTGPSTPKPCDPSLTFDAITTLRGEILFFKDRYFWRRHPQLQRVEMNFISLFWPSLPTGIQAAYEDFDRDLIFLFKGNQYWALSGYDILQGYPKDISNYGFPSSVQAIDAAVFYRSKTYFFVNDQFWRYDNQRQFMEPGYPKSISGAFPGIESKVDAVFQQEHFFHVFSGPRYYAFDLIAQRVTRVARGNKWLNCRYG
test_details: Inhibition of matrix metalloprotease-8
experimental_readout: Ki (nM)

1. O=C(C[C@@H](Cc1ccc(O)cc1)C(=O)N[C@@H]1CCc2ccccc21)NO : 15300
2. COc1cccc(C[C@H](CC(=O)NO)C(=O)N[C@H]2c3ccccc3C[C@H]2O)c1 : 1190
3. O=C(C[C@@H](Cc1ccc2c(c1)OCO2)C(=O)N[C@H]1c2ccccc2C[C@H]1O)NO : 40000
4. O=C(C[C@@H](Cc1ccc(O)cc1)C(=O)N[C@H]1c2ccccc2C[C@H]1O)NO : 70
5. O=C(NO)[C@@H](NCC1CC1)[C@@H](Cc1cccc(O)c1)C(=O)N[C@H]1c2ccccc2C[C@H]1O : 171
6. CC(C)C[C@H](CC(=O)NO)C(=O)N[C@H]1c2ccccc2C[C@H]1O : 37
7. O=C(C[C@@H](Cc1cccc(O)c1)C(=O)N[C@H]1c2ccccc2C[C@H]1O)NO : 8600
8. CC(C)C[C@H](CC(=O)NO)C(=O)N[C@@H]1c2ccccc2C[C@@H]1O : 303
9. CNC(=O)[C@H](Cc1ccc(OC)cc1)NC(=O)[C@@H](CC(=O)NO)CC(C)C : 0.7
10. COc1ccc(C[C@H](CC(=O)NO)C(=O)N[C@H]2c3ccccc3C[C@H]2O)cc1 : 9.2
11. CNC(=O)[C@H](Cc1ccc(OC)cc1)NC(=O)[C@@H](CC(=O)NO)Cc1ccc(O)cc1 : 0.45

====

test_details: Inhibition of aggrecanase
Set-up: species or system Homo sapiens
experimental_readout: log10 of IC50 (log10 of the value in nM)

1. CNC(=O)[C@H](Cc1ccc(OC)cc1)NC(=O)[C@@H](CC(=O)NO)Cc1ccc(O)cc1 : 2.52
2. CC(C)C[C@H](CC(=O)NO)C(=O)N[C@@H]1c2ccccc2C[C@@H]1O : 4.12
3. O=C(C[C@@H](Cc1ccc(O)cc1)C(=O)N[C@@H]1CCc2ccccc21)NO : 3.12
4. COc1ccc(C[C@H](CC(=O)NO)C(=O)N[C@H]2c3ccccc3C[C@H]2O)cc1 : 1.21
5. O=C(NO)[C@@H](NCC1CC1)[C@@H](Cc1cccc(O)c1)C(=O)N[C@H]1c2ccccc2C[C@H]1O : 1.08
6. O=C(C[C@@H](Cc1ccc(O)cc1)C(=O)N[C@H]1c2ccccc2C[C@H]1O)NO : 2.26
7. CC(C)C[C@H](CC(=O)NO)C(=O)N[C@H]1c2ccccc2C[C@H]1O : 3.23
8. CNC(=O)[C@H](Cc1ccc(OC)cc1)NC(=O)[C@@H](CC(=O)NO)CC(C)C : 2.57
9. O=C(C[C@@H](Cc1ccc2c(c1)OCO2)C(=O)N[C@H]1c2ccccc2C[C@H]1O)NO : 2.90
10. COc1cccc(C[C@H](CC(=O)NO)C(=O)N[C@H]2c3ccccc3C[C@H]2O)c1 : 3.50
11. O=C(C[C@@H](Cc1cccc(O)c1)C(=O)N[C@H]1c2ccccc2C[C@H]1O)NO : 1.81
